Reported values of TGI for individual entries
Tested on: SF-295 CNS
Assay Protocol: NCI tumour cell line growth inhibition, 48 h

Problem: Report its TGI with SF-295 CNS as the test system: Cc1cc(-c2nc3cc(F)c(F)cc3s2)ccc1N
Result: > 82.9 µM

Problem: Write down the reported TGI (system: SF-295 CNS) of CC(=O)c1ccc(NCN2C(=O)c3ccccc3C2=O)cc1
Result: > 100 µM

Now turn to the next compound.
Problem: Find TGI for CCSc1nc2n(c(=S)n1)CCN2C on SF-295 CNS and write it down.
Result: 41.2 µM

###

Test system: MDA-MB-231 breast
Assay Protocol: NCI tumour cell line growth inhibition, 48 h
Assay Endpoint: GI50

Problem: Return reported GI50. Input molecule: COc1ccc(Nc2ncccc2C(=O)NCc2cn(Cc3cccc(Oc4ccccc4)c3)nn2)cc1
Result: 3.09 µM

Problem: For CCCN1CCN(c2ccc3nc(-c4ccc5nc(-c6ccc(OCC)c(OCC)c6)[nH]c5c4)[nH]c3c2)CC1 , write its GI50.
Result: 1.21 µM

Problem: Tell me measured GI50 for O=C(CN1CCN(c2ccc(Cl)cc2)CC1)N1CCN(c2nnc(-c3ccccc3)c(-c3ccccc3)n2)CC1 please.
Result: > 100 µM

Problem: Report measured GI50; entry is CC(=O)Nc1sc2c(c1-c1nc3ccccc3s1)CNC2
Result: 3.09 µM

###

Tested on: HOP-62 NSCLC
Assay Protocol: NCI tumour cell line growth inhibition, 48 h
Assay Endpoint: TGI (µM)
Answer format: numeric, µM implied, no suffix.

Problem: State recorded TGI with HOP-62 NSCLC, entry CC(=O)Nc1sc2c(c1-c1nc3ccccc3s1)CNC2 , no comment.
Result: 15.8

---
Problem: Give TGI; test system HOP-62 NSCLC; compound CCN1CCN(C(=O)[C@]23CCC(C)(C)C[C@@H]2C2=CC[C@@H]4[C@@]5(C)C/C(=C/c6cccnc6)C(=O)C(C)(C)[C@@H]5CC[C@@]4(C)[C@]2(C)CC3)CC1
Result: 3.75

Problem: Find TGI for CC1Cc2cc(O)ccc2C2[C@@H]1C1CC[C@H](O)[C@@]1(C)C[C@@H]2O[N+](=O)[O-] (some centres undefined) on HOP-62 NSCLC and write it down.
Result: 44.4

Problem: Tell me its TGI on HOP-62 NSCLC: CC1=C(C(=O)Nc2ccccc2C)C(c2ccc(C3C(C(=O)Nc4ccccc4C)=CNC=C3C(=O)Nc3ccccc3C)cc2)C(C(=O)Nc2ccccc2C)=C(C)N1
Result: 48.7

Problem: Give TGI for this entry on HOP-62 NSCLC: Cc1cccc(NC(=S)N/N=C(/c2ccccc2)c2ccccn2)c1
Result: 17.5

###

Test system: COLO 205 colon
Assay Protocol: NCI tumour cell line growth inhibition, 48 h
Assay Endpoint: TGI

Problem: Please report TGI for the following compound: Cc1cccc(NC(=S)N/N=C(/c2ccccc2)c2ccccn2)c1
Result: 12.8 µM

---
Problem: Consider the compound BrC12c3ccccc3Sc3ccccc3C1(Br)c1ccccc12 (stereo not given) . State its measured TGI.
Result: 76.3 µM

Problem: Please indicate TGI recorded for CN(C)/C=N/c1nc2ncn(CCOC(=O)c3ccccc3)c2c(=O)[nH]1
Result: > 100 µM

Problem: Answer with reported TGI of O=C(O)CNS(=O)(=O)c1ccc(NC(=O)Nc2ccccc2)cc1
Result: > 100 µM

Problem: Name the recorded TGI of the compound listed here: CC1(C)C2CCC1(CC(=O)O)C(Cl)C2 (stereo not given)
Result: > 100 µM

Problem: Quote TGI reported for COc1ccc(-c2nocc2-c2cc(OC)c(OC)c(OC)c2)cc1 please.
Result: 1.24 µM

###

Tested on: MDA-MB-435
Assay Protocol: NCI tumour cell line growth inhibition, 48 h; in the data active = GI50 below about 0.43 µM; inactive = the rest
Hi there, use one of these labels in your reply, thanks! y = active, n = inactive

Problem: State the result this test recorded for COc1cc(NC(N)=NCCC(C)(C)c2ccc(C(F)(F)F)cc2)ncc1C#N .
Result: n

Problem: Name the outcome recorded for COc1ccc(CNc2nc(NCc3ccc(OC)cc3)c3n[nH]c(C(C)C)c3n2)cc1 in the assay.
Result: n

Problem: Which outcome was entered for the compound CC(=O)Nc1sc2c(c1-c1nc3ccccc3s1)CNC2 in this test?
Result: n

Problem: Which outcome was entered for the compound O=C(CCl)Nc1ccc2c(c1)C(=O)c1ccc(NC(=O)CCl)cc1C2=O in this test?
Result: y

Problem: How did this test come out for COc1cc(C2C(C#N)=C(N)Oc3cc(O)ccc32)cc(OC)c1OC (centres undefined) ?
Result: y

Others:
Problem: State the result this test recorded for Oc1cc2ccccc2cc1-c1n[nH]c(=S)n1-c1ccc(Cl)cc1 .
Result: n

Problem: How did this test come out for C[C@@]1(N2C(=O)OC[C@@H]2c2ccccc2)C(=O)N([C@H](CC(=O)N2CCC(N3CCCCC3)CC2)C(=O)NCc2cccc(C(F)(F)F)c2)[C@@H]1/C=C/c1ccccc1 ?
Result: n

Problem: Called result for CCCN1CCN(c2ccc3nc(-c4ccc5nc(-c6ccc(OCC)c(OCC)c6)[nH]c5c4)[nH]c3c2)CC1
Result: n

Problem: Check the results log: what was the call for CC(C)[C@@H]1CC[C@@H]2[C@@H]1[C@H](OC(=O)/C=C/c1ccccc1)[C@]1(C(C)C)C[C@@H](OC(=O)CO)[C@@]2(C)O1 ?
Result: n

###

System: K-562 leukemia
Assay Protocol: NCI tumour cell line growth inhibition, 48 h; in the data active = GI50 below about 0.43 µM; inactive = the rest
Entry note: the call must match one of active, inactive

Problem: Look up the recorded call for COc1cc2c3c(n(CCCCl)c(=O)c2cc1OC)-c1ccc(C#N)cc1C3=O in this test.
Result: inactive

Problem: What did this assay record as the result for CCc1ccc(Nc2cc(C)nc3nc(C)nn23)cc1 ?
Result: inactive

Now consider the entry below.
Problem: Which outcome did this test record for the compound Cc1ccccc1/C=C1\CN(C(=O)OC(C)(C)C)C/C(=C\c2ccccc2C)C1=O ?
Result: inactive

###

Test system: OVCAR-5 ovarian
Assay Protocol: NCI tumour cell line growth inhibition, 48 h
Below is a list of entries, each paired with its recorded TGI value.

Study these solved cases before continuing.
Problem: Fill in reported TGI for this entry: CN1OC2OC(=O)OC2[C@H]1[C@H]1O[C@H](c2ccccc2)OC1(C)c1cc(OC(=O)c2ccccc2)ccc1OC(=O)c1ccccc1 (stereo not given in full)
Result: > 50 µM

Problem: Read the entry CC[C@]12C=CCN3CCC4(c5cc([C@@]6(C(=O)OC)CC7CN(CCc8c6[nH]c6ccccc86)C[C@@H]6CCC[C@H]76)c(OC)cc5N(C)C4[C@](O)(C(=O)OC)C1OC(C)=O)C32 (stereo not given in full) and write its reported TGI.
Result: > 10 µM

Problem: Give the value of TGI reported for the following: C=C1N(C)c2ccc(Cl)cc2C1(C)C
Result: > 100 µM

Problem: Could you please provide reported TGI for NC(CCCCNC(=O)C(Cc1ccccc1)NC(=O)OCc1ccccc1)C(=O)NC(CCCCNC(=O)C(Cc1ccccc1)NC(=O)OCc1ccccc1)C(=O)NC(CCCCNC(=O)C(Cc1ccccc1)NC(=O)OCc1ccccc1)C(=O)NC(CCCCNC(=O)C(Cc1ccccc1)NC(=O)OCc1ccccc1)C(=O)NC(CCCCNC(=O)C(Cc1ccccc1)NC(=O)OCc1ccccc1)C(=O)NC(CCCCNC(=O)C(Cc1ccccc1)NC(=O)OCc1ccccc1)C(=O)O (stereo not given) ? Thanks!
Result: > 100 µM

Now examine the next entry.
Problem: Using known records, supply TGI for CCOC1SC(SC)=NN1C(=O)C(OC(C)=O)C(OC(C)=O)C(OC(C)=O)C(OC(C)=O)C(=O)N1N=C(SC)SC1OCC (stereo not given)
Result: > 100 µM

###

The compounds listed here are annotated with their TGI.
System: M14 melanoma
Assay Protocol: NCI tumour cell line growth inhibition, 48 h
*1 amine or outer side, *2 acyl side, *3 side chain or, on linkers, in order; H or OH if unused. Where a SMILES comes first, the peptide text is derived from it. Bridges are numbered along the chain shown (N, C = ends). [ ]: non-standard residue; d: D form. The star is where a group is joined. Phe(3-Me) = Cc1cccc(C[C@H](N)C(=O)O)c1; NH(4-Cl-2-F-phenyl) = Fc1cc(Cl)ccc1N*; Pro(4R-Me) = C[C@H]1CN[C@H](C(=O)O)C1; Propanoyl(3-NMe2) = CN(C)CCC(=O)*; Hyp = O=C(O)[C@@H]1C[C@@H](O)CN1; aThr = C[C@H](O)[C@H](N)C(=O)O; Pip = O=C(O)[C@@H]1CCCCN1; CO = O=C([*:1])[*:2]

Use the examples below as a reference point.
Problem: Provide TGI value for the following compound: C[n+]1ccc(-c2c3nc(c(-c4ccc5c(ccc[n+]5C)c4)c4ccc([nH]4)c(-c4cc[n+](C)cc4)c4nc(c(-c5ccc6c(ccc[n+]6C)c5)c5ccc2[nH]5)C=C4)C=C3)cc1
Result: > 50 µM

Problem: Kindly indicate its recorded TGI. Item: CCOC1SC(SC)=NN1C(=O)C(OC(C)=O)C(OC(C)=O)C(OC(C)=O)C(OC(C)=O)C(=O)N1N=C(SC)SC1OCC (stereo unspecified)
Result: > 100 µM

Problem: Check the records and state TGI for COc1cccc(-n2c(N)c(-c3nc4cc(C(F)(F)F)ccc4s3)c3ccc([N+](=O)[O-])cc3c2=O)c1
Result: > 100 µM

Problem: Provide TGI value for the following compound: Cc1cccc(C[C@H](NC(=O)Nc2ccc(Cl)cc2F)C(=O)N[C@@H]2C(=O)N3C[C@H](OC(=O)CCN(C)C)C[C@H]3C(=O)N3CCCC[C@H]3C(=O)N[C@@H](C)C(=O)N3C[C@H](C)C[C@H]3C(=O)O[C@H]2C)c1 ({NH(4-Cl-2-F-phenyl)-CO}-[Phe(3-Me)][aThr][Hyp](Propanoyl(3-NMe2))[Pip]A[Pro(4R-Me)]; ester 2-C)
Result: 1.89 µM

Problem: // fetch TGI given entry Cc1nc(C)c(N2CCN(C#N)CC2)c(=O)[nH]1
Result: > 100 µM

Problem: Give TGI for O=C1C(N2C(=O)c3ccccc3C2=O)CN1C(COCc1ccccc1)c1ccc(OCc2ccccc2)cc1 (stereo unspecified)
Result: > 100 µM

Others:
Problem: Tell us which TGI value is on record for CC(C)(O)[C@H](CCO)O[Si](c1ccccc1)(c1ccccc1)C(C)(C)C
Result: 25.8 µM

Problem: Give TGI for O=c1[nH]c(=O)n(C2CC(O)C(CO)O2)cc1C#Cc1cc(F)cc(F)c1 (stereo unspecified)
Result: > 100 µM

Problem: Identify measured TGI associated with CCCCP(CCCC)(CCCC)=C(C(=O)OC)C(C(=O)OC)=C1SC(C(=O)OC)=C(C(=O)OC)S1
Result: 30.2 µM

Problem: Tell me its TGI given [N-]=[N+]=NC1=C(c2ccccc2)C(=O)c2cccc3cccc1c23 as the entry.
Result: > 100 µM

Problem: Using the record for COc1ccc(Cn2c(Br)c3c(c2-c2cc(OC)c(OC)c(OC)c2)CCc2sc(NC(C)=O)nc2-3)cc1 , state its measured TGI.
Result: > 100 µM

Problem: Identify the reported TGI for the following entry. CC[C@@]1(O)C(=O)OCc2c1cc1n(c2=O)Cc2c-1nc1ccccc1c2/C=N\NC(=O)C(C)N (stereo partly specified)
Result: 5.05 µM

Problem: Supply measured TGI of O=C(CCl)Nc1ccc2c(c1)C(=O)c1ccc(NC(=O)CCl)cc1C2=O in your reply.
Result: 0.781 µM

Problem: Retrieve TGI measured for CC1=CC2C(C(C)C)CC1C1C(=O)OC(=O)C21 (stereo unspecified) and print it.
Result: > 100 µM

Problem: Write down TGI measured for item CN1OC2OC(=O)OC2[C@H]1[C@H]1O[C@H](c2ccccc2)OC1(C)c1cc(OC(=O)c2ccccc2)ccc1OC(=O)c1ccccc1 (stereo partly specified)
Result: > 50 µM

Problem: Output TGI of OCSc1nn(CO)c(=S)s1
Result: 38.2 µM

From: PubChem BioAssay (NCI)
